B1: Hairpin Ribozyme (parent)
chain: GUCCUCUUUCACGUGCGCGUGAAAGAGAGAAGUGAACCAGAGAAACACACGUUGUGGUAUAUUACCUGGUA

- Variants of: B1
- assay-summary: self-cleavage, relative activity (ratio to wild type); higher = more cleavage; co-transcriptional
Some variants, each annotated with its measured self-cleavage.
Please reply with the number alone, leaving off any unit.

Solved entries:
sequence_data="GUCCUCUUUCACGUGCGCGUGAAAGAGAGAAGUGAAGCAGAGAAACACACGUUGUGGAAUAUUACCUGGUA [C37G U58A]" observation_type=self-cleavage obs_value=0.202
sequence_data="GUCCUCUAUCACGUGCGCGUGAAAGAGAGAAGUGAACCAGAGAAACACACGUUGUGGUAUAUGACCUGGUA [U8A U63G]" observation_type=self-cleavage obs_value=0.117
sequence_data="GUCCUCUUUGACGUGCGCGUGAAAGAGAGAAGUGAACUAGAGAAACACACGUUGUGGUAUAUUACCUGGUA [C10G C38U]" observation_type=self-cleavage obs_value=0.435

Prompt: Tell me the measured self-cleavage of GUCCUCAUGCACGUGCGCGUGAAAGAGAGAAGUGAACCAGAGAAACACACGUUGUGGUAUAUUACCUGGUA [U7A U9G] , please.
Completion: 0.579

Prompt: Also, GUCCUCUUUCACGUGCGCGUGAAAGAGAGAAGUGAACCAGAGUAACAAACGUUGUGGUAUAUUACCUGGUA [A43U C48A] please.
Completion: 0.206

Prompt: Also, GUCCUCUUUCACGUGCGCGUGACAGAGAGAAGUCAACCAGAGAAACACACGUUGUGGUAUAUUACCUGGUA [A23C G34C] please.
Completion: 1.26
